- System: MERTK
- settings: concentration: 1 μM, replicates: in singlicate; n = 1;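 also: KINOMEscan kinase panel screen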
Output 1 for records whose %Inh is lower than 9%, 0 for records at or above 9%.

Solved entries (count: 5):
Cc1cc(-c2ccc3c(c2)CC[C@@H](N[C@@H](C)c2ccccc2)C3)cnc1N.Cl	0
O=C(Nc1n[nH]c2nc(-c3nccs3)c(Br)cc12)C1CCCC1	0
COc1cc(Nc2nccc(N3CCC(NC(=O)Nc4cc(C)ccc4C)C3)n2)cc(OC)c1OC (centres unmarked)	0
Cl.Oc1ccc(-c2nc(-c3ccccc3)[nH]c2-c2ccncc2)cc1	1
COc1cccc(-c2cc(-c3c[nH]nc3-c3ccccn3)ccn2)c1	0

*Q* # check: %Inh < 9% for "Cc1ccc(-c2cc(-c3c[nH]nc3-c3ccccn3)ccn2)cc1"
*A* 0

*Q* Consider "COc1ccc(C2=C(Nc3cccc(C(=O)O)c3)C(=O)NC2=O)cc1" . Does its %Inh lie strictly below 9%?
*A* 0

*Q* Is %Inh of "Cc1ccc(NC(=O)Nc2cccc(Cl)c2)cc1-c1ccc(C(=O)Nc2ccncc2)cc1" strictly below 9%?
*A* 1

*Q* API: query returns whether the compound falls strictly under 9% in %Inh. Query: "CS(=O)(=O)c1ccc(-c2nc3n(c2-c2ccncc2)CCC3)cc1"
*A* 0

*Q* In the record for "Cc1cccc(-c2cc(Nc3ccncc3)c3ccccc3n2)n1" , is %Inh less than 9%?
*A* 1

*Q* Hello, I'm reviewing records and need to know if %Inh of "COc1ccccc1-c1ccc2c(NC(=O)C3CC3)n[nH]c2n1" is below 9%. Could you check?
*A* 1

*Q* Please state whether %Inh is below 9% for "COc1cc2nccc(Nc3ccc(NC(=O)c4ccc(C)cc4)c(O)c3)c2cc1OC.Cl"
*A* 1

*Q* Item "Cl.O=C(Nc1cccc(-c2nn3ncccc3c2-c2ccnc(Nc3cccnc3)n2)c1)c1c(F)cccc1F" : %Inh beneath 9%, strictly?
*A* 0

----------
Quick list: %Inh per entry.
- Tested on: SRC
- settings: concentration: 1 μM, replicates: in singlicate; n = 1
Express it in %; write the number only.

Sample answers from the record:
O=C(Nc1ccccc1)Nc1cccc(Oc2ccc3nccn3n2)c1	0
CC(=O)Nc1nc2cnc(Nc3cc(NC(=O)c4cccc(CCC#N)c4)ccc3C)nc2s1	18
COc1ccccc1-c1ccc2c(NC(=O)C3CC3)n[nH]c2n1	6
O=C(Nc1n[nH]c2nc(-c3nccs3)c(Br)cc12)C1CC1	0
Cc1ccc(C(=O)Nc2ccc(Nc3ccnc4cc(-c5ccccn5)ccc34)cc2O)cc1.Cl	56
Cc1c(O)cccc1Nc1ccnc2ccc(C(F)(F)F)cc12.Cl	79

*Q* Retrieve %Inh on SRC; query "Cc1cc(-c2ccc3c(c2)CC[C@@H](N[C@@H](C)c2ccccc2)C3)cnc1N.Cl"
*A* 4

----------
- Test system: RIOK1
- settings: concentration: 1 μM, replicates: in singlicate; n = 1
Mark F for %Inh values under 4%, and T for everything at or above.

*Q* Item Cc1cccc(-c2nc(Nc3ccncc3)c3ccccc3n2)n1 [GW855857] with %Inh of 4% or above?
*A* F

*Q* Has Fc1cc(Cl)ccc1Nc1ccnc2cc(I)ccc12 [GW551191] a recorded %Inh greater than or equal to 4%?
*A* T

----------
- System: FGFR4
- settings: concentration: 1 μM, replicates: in singlicate; n = 1
attribute.measured: %Inh (%)
Note: unit % is implicit; provide only the numeric part.

COc1cccc(-c2cc(-c3c[nH]nc3-c3ccccn3)ccn2)c1	6

*Q* Name the recorded %Inh of the item "Cc1cccc(-c2nc(Nc3ccncc3)c3ccccc3n2)n1" in your answer.
*A* 6

*Q* Output %Inh of "COc1cc2nccc(Nc3ccc(NC(=O)c4ccc(C)cc4)c(O)c3)c2cc1OC.Cl"
*A* 6
